- assayed_system: SCRIB_1, Q14160
- Sequence (Q14160 718-814): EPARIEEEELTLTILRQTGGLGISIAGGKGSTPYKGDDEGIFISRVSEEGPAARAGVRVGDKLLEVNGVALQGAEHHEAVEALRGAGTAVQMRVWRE
- protocol_description: holdup assay
- Set-up: key: below the threshold = too weak to quantify, mostly under pKd 3.1 to 4
- experimental_conditions: plain residues with an end cap or a label only (N-terminal biotin on a linker: ahx)
reported_property: pKd
In your answer, state the number alone without any accompanying words.

The reported value for AKPQPVDSWV [ARVCF, O00192] in terms of pKd is 3.74

Given item HSATSVHTSV [MTMR1, Q13613] , the value recorded as its pKd is 3.79

Entry under test: YNSFLSVTTV [PDZRN3, Q9UPQ7] . Its pKd was 3.62

The reported value for ADENEQVSAV [RAPGEF6, Q8TEU7] in terms of pKd is 3.65

PKMKLNETSF [SHKBP1, Q8TBC3] has a reported pKd of 4.31

These data points were gathered from paper PMC9482650.
